B1: KCNA3 (parent)
chain: GERVVINISGLRFETQLKTLCQFP

Variants of: B1
Test: protein stability index of a GFP-peptide fusion (GPS, HEK-293T) (PSI 1-6); higher = more stable;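 also: lentivirally expressed fusions sorted by FACS into six bins by GFP to DsRed ratio, PSI derived from sequencing read proportions per bin multiplied by bin number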
Conditions: c terminus: a fixed tail appended
experimental readout: protein stability index
Could you respond with only the numeric value?

Worked examples, 4 variants total:
sequence text | reading
GERVIINISGLRFETQLKTLCQFP [V5I] | 2.99
GERVVINISGLRFEQQLKTLCQFP [T15Q] | 2.31
GERVVINISGLRFETQLKTLCQKP [F23K] | 1.59
GERVVINISGLRFPTQLKTLCQFP [E14P] | 1

query: Return protein stability index for the following variant: GERVVINISGLRFETQLKTLCQAP [F23A]
result: 2.41

query: Return protein stability index for the following variant: GERVVINISGLRFETQLKTLCQFE [P24E]
result: 4.68

query: Return protein stability index for the following variant: GERVVIDISGLRFETQLKTLCQFP [N7D]
result: 1.83
